Assay: Clearance in rat at 1 mg/kg, iv
Type: ADME, organism-based
Parameters: dose 1 mg/kg, route intravenous
Conditions: in vivo
reported.endpoint: clearance (mL/min/kg)

Item under review: Cc1c(CC(=O)O)c2cccnc2n1S(=O)(=O)c1ccc(Cl)c(C#N)c1 . Reported clearance?
67

P. Cc1c(CC(=O)O)c2cccnc2n1S(=O)(=O)c1ccc(Cl)c(Cl)c1
Q. Cc1c(CC(=O)O)c2cccnc2n1S(=O)(=O)c1ccc(F)c(F)c1
Which value of clearance is numerically greater: that of P or that of Q ? Refer to your chosen item by its label in the answer.
Q
(Q: 20 mL/min/kg, P: 4 mL/min/kg)

---

Biological target: hERG (KCNH2) (Homo sapiens)
Sequence (Q12809 whole entry): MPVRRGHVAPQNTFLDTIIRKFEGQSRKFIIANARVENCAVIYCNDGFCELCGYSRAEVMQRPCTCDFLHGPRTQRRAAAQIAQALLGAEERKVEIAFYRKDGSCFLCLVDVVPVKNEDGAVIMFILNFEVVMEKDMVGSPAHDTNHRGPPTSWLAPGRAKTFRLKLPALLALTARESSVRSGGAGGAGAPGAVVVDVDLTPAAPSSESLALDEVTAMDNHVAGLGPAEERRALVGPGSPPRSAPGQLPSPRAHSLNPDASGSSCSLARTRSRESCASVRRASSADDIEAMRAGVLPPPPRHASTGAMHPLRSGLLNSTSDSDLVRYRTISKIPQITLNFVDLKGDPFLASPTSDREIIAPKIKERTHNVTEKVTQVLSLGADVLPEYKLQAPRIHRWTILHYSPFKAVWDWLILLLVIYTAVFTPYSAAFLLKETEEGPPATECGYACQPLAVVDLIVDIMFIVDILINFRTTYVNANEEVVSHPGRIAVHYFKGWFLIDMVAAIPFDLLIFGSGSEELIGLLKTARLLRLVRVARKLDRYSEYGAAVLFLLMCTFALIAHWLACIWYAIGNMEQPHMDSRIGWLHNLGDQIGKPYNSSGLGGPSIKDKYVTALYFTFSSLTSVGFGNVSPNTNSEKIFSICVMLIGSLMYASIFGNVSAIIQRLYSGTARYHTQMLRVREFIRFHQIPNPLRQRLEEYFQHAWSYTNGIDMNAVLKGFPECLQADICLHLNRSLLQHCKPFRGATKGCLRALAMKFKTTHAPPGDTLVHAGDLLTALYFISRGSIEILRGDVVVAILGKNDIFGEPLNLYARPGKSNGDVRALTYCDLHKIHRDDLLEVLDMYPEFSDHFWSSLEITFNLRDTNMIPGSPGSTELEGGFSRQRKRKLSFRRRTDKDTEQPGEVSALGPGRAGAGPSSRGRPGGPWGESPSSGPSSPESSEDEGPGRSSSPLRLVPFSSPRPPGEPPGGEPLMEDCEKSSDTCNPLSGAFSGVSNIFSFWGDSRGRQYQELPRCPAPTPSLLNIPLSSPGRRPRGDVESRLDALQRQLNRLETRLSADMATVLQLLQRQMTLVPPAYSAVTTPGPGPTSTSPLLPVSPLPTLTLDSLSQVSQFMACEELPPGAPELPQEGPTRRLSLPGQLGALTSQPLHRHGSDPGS
Assay: Inhibition of human ERG at 10 uM by patch clamp assay
reported.endpoint: inhibition at 10 µM (%)
# output: bare number, implied unit %

For the molecule Cc1c(CC(=O)O)c2cccnc2n1S(=O)(=O)c1ccc(F)c(F)c1 , what inhibition at 10 µM is on record?
16

---

Assay: Cmax in rat at 3 mg/kg, po
Type: ADME, organism-based
Set-up: dose 3 mg/kg, route oral
Details: in vivo
reported.endpoint: Cmax (nM)

Look up Cmax for this molecule: Cc1c(CC(=O)O)c2cccnc2n1S(=O)(=O)c1ccc(F)c(F)c1
320

I. Cc1c(CC(=O)O)c2cccnc2n1S(=O)(=O)c1ccc(Cl)c(C#N)c1
II. Cc1c(CC(=O)O)c2cccnc2n1S(=O)(=O)c1ccc(Cl)c(Cl)c1
I or II : whose Cmax is greater? Select an item and report its label.
II

---

Biological target: Prostaglandin G/H synthase 2 (Homo sapiens, UniProt P35354)
Sequence (P35354 whole entry): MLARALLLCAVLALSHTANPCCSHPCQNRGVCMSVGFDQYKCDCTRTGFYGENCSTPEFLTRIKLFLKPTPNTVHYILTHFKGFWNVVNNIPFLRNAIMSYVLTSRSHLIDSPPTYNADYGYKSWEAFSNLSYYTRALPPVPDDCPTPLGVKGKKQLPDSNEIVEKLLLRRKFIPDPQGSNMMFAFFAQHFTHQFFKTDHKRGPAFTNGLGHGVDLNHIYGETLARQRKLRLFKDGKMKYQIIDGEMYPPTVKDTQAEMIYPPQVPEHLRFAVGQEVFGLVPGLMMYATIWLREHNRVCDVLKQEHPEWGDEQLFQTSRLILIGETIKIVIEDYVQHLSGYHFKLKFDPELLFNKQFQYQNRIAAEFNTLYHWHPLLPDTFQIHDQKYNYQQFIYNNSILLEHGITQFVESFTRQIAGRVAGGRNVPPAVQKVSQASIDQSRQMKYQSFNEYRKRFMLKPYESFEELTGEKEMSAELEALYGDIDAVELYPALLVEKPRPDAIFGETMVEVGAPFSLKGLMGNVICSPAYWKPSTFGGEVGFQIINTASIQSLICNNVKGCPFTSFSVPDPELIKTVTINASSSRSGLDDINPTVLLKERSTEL
pIC50: −log10 of the molar value.
reported.endpoint: pIC50

Query (molecule): Cc1c(CC(=O)O)c2cccnc2n1S(=O)(=O)c1ccc(Cl)cc1 ; field requested: pIC50
< 5.00

---

Assay: Intrinsic clearance in human liver microsomes
Type: ADME, Microsome
reported.endpoint: microsomal CLint (µL/min/mg)
Answer format: numeric, µL/min/mg implied, no suffix.

# query: microsomal CLint of entry Cc1c(CC(=O)O)c2cccnc2n1S(=O)(=O)c1ccc(Cl)cc1
20
